Tested on: human monoclonal antibody CRJB
Type: binding
READOUT_LABEL: Binding of CRJB (10 μg/ml) to looped/cyclic peptide (PEPSCAN-ELISA signal)
I only need the number, thanks.

Reference set, count: 3
BIOPOLYMER_SEQUENCE	RECORDED_VALUE
GFSYMELKVGYILAI	57
YTILDKLGPWSPIDI	73
VEDEGCTNLSGFSYM	78

Lab note: next sequence to report on.
Which Binding of CRJB (10 μg/ml) to looped/cyclic peptide (PEPSCAN-ELISA signal) value is on record for `KMAGDPRYEESLHNP` ?
45

---

System: human monoclonal antibody CRJA
Type: binding
So basically: Binding of CRJA to linear peptide (PEPSCAN-ELISA signal) at 90 or higher? That is true. Lower than 90? That is false.

BIOPOLYMER_SEQUENCE	GROUP
ILPSKGCLRVGGRCH	true
FVGYVTTTFKRKHFR	false
LRVGGRCHPHVNGVF	true

Would you say `GKRASKGSETCGFVD` shows Binding of CRJA to linear peptide (PEPSCAN-ELISA signal) at minimum 90?
true

API: above_or_equal(metric=Binding of CRJA to linear peptide (PEPSCAN-ELISA signal), cutoff=90) for item `VNGVFFNGIILGPDG`
true

Threshold query (Binding of CRJA to linear peptide (PEPSCAN-ELISA signal) >= 90) on `KLCGVLGLRLMDGTW`
true

Hi, just wondering whether `VFFNGIILGPDGNVL` shows Binding of CRJA to linear peptide (PEPSCAN-ELISA signal) of 90 or higher.
false

---

Test system: human monoclonal antibody CRJA
Type: binding
Binding of CRJA (10 μg/ml) to looped/cyclic peptide (PEPSCAN-ELISA signal) under 100 gets Criterion met, anything at or over 100 gets Criterion not met.

BIOPOLYMER_SEQUENCE	GROUP
HNPYPDYRWLRTVKT	Criterion met
TTKESLVIISPSVAD	Criterion not met
VADLDPYDRSLHSRV	Criterion met

I'd appreciate it if you could check whether `AENYTNFVGYVTTTF` has Binding of CRJA (10 μg/ml) to looped/cyclic peptide (PEPSCAN-ELISA signal) smaller than 100.
Criterion met

Below 100 on Binding of CRJA (10 μg/ml) to looped/cyclic peptide (PEPSCAN-ELISA signal)? Entry `SYMELKVGYILAIKM`
Criterion met

---

Binding of CRJB (10 μg/ml) to looped/cyclic peptide (PEPSCAN-ELISA signal) overview
System: human monoclonal antibody CRJB
Assay type: binding

Consider the worked cases shown below.
BIOPOLYMER_SEQUENCE	RECORDED_VALUE
YDRSLHSRVFPSGKC	72
ENYTNFVGYVTTTFK	80
GVAVSSTYCSTNHDY	80
GDPRYEESLHNPYPD	82
SPSVADLDPYDRSLH	63

Please report the recorded Binding of CRJB (10 μg/ml) to looped/cyclic peptide (PEPSCAN-ELISA signal) for `PIDIHHLSCPNNLVV` .
70

Requested field: Binding of CRJB (10 μg/ml) to looped/cyclic peptide (PEPSCAN-ELISA signal). Item: `HDYTIWMPENPRLGM`
96

What value of measured Binding of CRJB (10 μg/ml) to looped/cyclic peptide (PEPSCAN-ELISA signal) is listed for `PRLGMSCDIFTNSRG` ?
89

Consider the sequence `GMSCDIFTNSRGKRA` and give its measured Binding of CRJB (10 μg/ml) to looped/cyclic peptide (PEPSCAN-ELISA signal).
78

Return reported Binding of CRJB (10 μg/ml) to looped/cyclic peptide (PEPSCAN-ELISA signal); argument: `LVVEDEGCTNLSGFS`
82

Dear colleague, I am looking for the recorded Binding of CRJB (10 μg/ml) to looped/cyclic peptide (PEPSCAN-ELISA signal) of the following sequence: `GCTNLSGFSYMELKV`
55

# input sequence: `PDYRWLRTVKTTKES` ; wanted: its Binding of CRJB (10 μg/ml) to looped/cyclic peptide (PEPSCAN-ELISA signal)
72

Name the recorded Binding of CRJB (10 μg/ml) to looped/cyclic peptide (PEPSCAN-ELISA signal) for `NNLVVEDEGCTNLSG` .
75

Which Binding of CRJB (10 μg/ml) to looped/cyclic peptide (PEPSCAN-ELISA signal) is listed for `CPNNLVVEDEGCTNL` ?
54

For `IKMNGFTCTGVVTEA` , what is its reported Binding of CRJB (10 μg/ml) to looped/cyclic peptide (PEPSCAN-ELISA signal)?
86

What does the data say about its Binding of CRJB (10 μg/ml) to looped/cyclic peptide (PEPSCAN-ELISA signal)? Entry: `RYEESLHNPYPDYRW`
71

Which Binding of CRJB (10 μg/ml) to looped/cyclic peptide (PEPSCAN-ELISA signal) value belongs to `LGMSCDIFTNSRGKR` ?
105

Data request, read-out Binding of CRJB (10 μg/ml) to looped/cyclic peptide (PEPSCAN-ELISA signal), for `ILDKLGPWSPIDIHH`
46

Please look up its Binding of CRJB (10 μg/ml) to looped/cyclic peptide (PEPSCAN-ELISA signal): `AVSSTYCSTNHDYTI`
79

Quick check: Binding of CRJB (10 μg/ml) to looped/cyclic peptide (PEPSCAN-ELISA signal) of `DACRAAYNWKMAGDP` ?
77

Name the recorded Binding of CRJB (10 μg/ml) to looped/cyclic peptide (PEPSCAN-ELISA signal) for `FPIYTILDKLGPWSP` .
63

---

System: human monoclonal antibody CRJB
Type: binding
READOUT_LABEL: Binding of CRJB to linear peptide (PEPSCAN-ELISA signal)
Just the number, please.

// known answers, use as guide
BIOPOLYMER_SEQUENCE	RECORDED_VALUE
YCSTNHDYTIWMPEN	92
HLRKLVPGFGKAYTI	111

# returns recorded Binding of CRJB to linear peptide (PEPSCAN-ELISA signal) (system: human monoclonal antibody CRJB) for `VAMQTSNETKWCPPD`
104

Missing value: Binding of CRJB to linear peptide (PEPSCAN-ELISA signal), human monoclonal antibody CRJB, entry `RYEESLHNPYPDYRW` . Fill in?
112

Please tell me: Binding of CRJB to linear peptide (PEPSCAN-ELISA signal) of `SRVFPSGKCSGVAVS` , system human monoclonal antibody CRJB?
125

Request body: readout Binding of CRJB to linear peptide (PEPSCAN-ELISA signal), system human monoclonal antibody CRJB, query `KREECLDALESIMTT` . Return the value.
113

Record lookup: for human monoclonal antibody CRJB, what Binding of CRJB to linear peptide (PEPSCAN-ELISA signal) belongs to `KGCLRVGGRCHPHVN` ?
130

Form: Entry = `SVADLDPYDRSLHSR` | System = human monoclonal antibody CRJB | Binding of CRJB to linear peptide (PEPSCAN-ELISA signal) = ____
106

GET /values?readout=Binding of CRJB to linear peptide (PEPSCAN-ELISA signal)&system=human monoclonal antibody CRJB&item= `TCGFVDERGLYKSLK`
120

Could you share what Binding of CRJB to linear peptide (PEPSCAN-ELISA signal) was measured for `IHHLSCPNNLVVEDE` , tested on human monoclonal antibody CRJB?
85

Query the reported Binding of CRJB to linear peptide (PEPSCAN-ELISA signal) for human monoclonal antibody CRJB; item: `EGCTNLSGFSYMELK`
114

---

Test system: human monoclonal antibody CRJB
Format: binding
Here, each record is paired with measured Binding of CRJB (10 μg/ml) to looped/cyclic peptide (PEPSCAN-ELISA) data.
Answer using only a numeral; do not append any unit.

BIOPOLYMER_SEQUENCE	RECORDED_VALUE
HVNGVFFNGIILGPD	92
MQTSNETKWCPPDQL	33
CHPHVNGVFFNGIIL	101
NLHDFRSDEIEHLVV	62
LRLMDGTWVAMQTSN	72

Report Binding of CRJB (10 μg/ml) to looped/cyclic peptide (PEPSCAN-ELISA) for `KRASKGSETCGFVDE` please.
85

Can you look up the measured Binding of CRJB (10 μg/ml) to looped/cyclic peptide (PEPSCAN-ELISA) of `LGPDGNVLIPEMQSS` for me?
94

Item under review: `CGFVDERGLYKSLKG` . Reported Binding of CRJB (10 μg/ml) to looped/cyclic peptide (PEPSCAN-ELISA)?
76

Which Binding of CRJB (10 μg/ml) to looped/cyclic peptide (PEPSCAN-ELISA) is reported for this sequence? `VLIPEMQSSLLQQHM`
85

Need Binding of CRJB (10 μg/ml) to looped/cyclic peptide (PEPSCAN-ELISA) of `LQQHMELLESSVIPL` , thanks.
93
